Target: T1, recombinant human PVRIG-human IgG1 Fc fusion protein (human)
T1 construct: no linker is told; also called human PVRIG-Fc fusion protein
T1 sequence (chain, as listed by the source limits assumed): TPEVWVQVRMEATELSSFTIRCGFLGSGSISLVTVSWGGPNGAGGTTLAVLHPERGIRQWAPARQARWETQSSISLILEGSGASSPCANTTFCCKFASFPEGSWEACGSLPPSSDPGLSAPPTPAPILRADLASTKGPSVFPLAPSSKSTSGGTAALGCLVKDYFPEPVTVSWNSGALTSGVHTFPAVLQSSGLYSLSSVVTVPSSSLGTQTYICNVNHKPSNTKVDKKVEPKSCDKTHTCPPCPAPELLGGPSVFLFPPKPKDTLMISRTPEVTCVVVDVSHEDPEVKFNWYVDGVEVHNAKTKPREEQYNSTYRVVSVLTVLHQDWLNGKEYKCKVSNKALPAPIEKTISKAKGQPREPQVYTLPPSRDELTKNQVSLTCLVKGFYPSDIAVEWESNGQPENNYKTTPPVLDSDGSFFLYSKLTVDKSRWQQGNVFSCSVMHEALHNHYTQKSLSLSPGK
Assay: SPR (Biacore), human PVRIG-human IgG1 Fc on chip, antibody in flow, 1:1 model
Items are presented alongside their recorded kon.
API: value field is a number in M⁻¹ s⁻¹; no unit string.

binder="Antibody 4-hu11 (antibody, human IgG4 S228P, kappa, V domains shown, Humanized Antibody 4; heavy chain IgG4 with S228P already in the entry) VH: EVQLVQSGAEVKKPGSSVKVSCKASGYTFSSFSIEWVRQAPGQGLEWIGEILPGSNSTNYNEKFKGKATFTADTSTNTAYMELSSLRSEDTAVYYCSSYWFAYWGQGTLVTVSS VL: DIVMTQSPDSLAVSLGERATINCKSSQSLLNSGNQKNYLAWYQQKPGQPPKLLIYGASTRESGVPDRFSGSGSGTDFTLTISSLQAEDVAVYYCQNAHSYPPTFGQGTKLEIKR" experimental_result=237000
binder="Antibody 4-hu8 (antibody, human IgG4 S228P, kappa, V domains shown, Humanized Antibody 4; heavy chain IgG4 with S228P already in the entry; also called Antibody 4-hub [sic]) VH: EVQLVQSGAEVKKPGSSVKVSCKASGYTFSSFSIEWVRQAPGQGLEWMGEILPGSNSTNYNEKFKGRVTFTADESTSTAYMELSSLRSEDTAVYYCSSYWFAYWGQGTLVTVSS VL: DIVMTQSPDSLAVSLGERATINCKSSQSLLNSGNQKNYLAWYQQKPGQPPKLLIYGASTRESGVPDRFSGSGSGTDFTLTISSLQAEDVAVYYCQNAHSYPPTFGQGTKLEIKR" experimental_result=198000

# ---- query binder ----
Ask: Note down kon recorded for Antibody 4 (antibody, V domains shown, Murine monoclonal antibody from hybridoma ascites; Used AF647-labelled in several flow cytometry assays; also called murine antibody (Antibody 4); murine Antibody 4) VH: QVQLQQSGAELVKPGASVKISCKATGYTFSSFSIEWVKQRPGHGLAWIGEILPGSNSTNYNEKFKGKATFTADTSSNTAYMQLSSLTSEDSAVYYCSSYWFAYWGQGTLVTVSA VL: DIVMTQSPSSLSVSAGEKVTMSCKSSQSLLNSGNQKNYLAWYQQKPGQPPKLLIYGASTRESGVPDRFTGSGSGTDFTLTISSVQAEDLAVYYCQNAHSYPPTFAAGTKLELK
Reply: 244000
